The following binders are listed with their measured pEC50 values.
tested.target: T1, Macaque Trop-2-His (macaque, UniProt P09758 27-274 (human entry))
T1 construct: Extracellular domain of macaque Trop-2 recombinantly linked to His; also called monkey Trop-2-His protein; monkey Trop-2
T1 chain: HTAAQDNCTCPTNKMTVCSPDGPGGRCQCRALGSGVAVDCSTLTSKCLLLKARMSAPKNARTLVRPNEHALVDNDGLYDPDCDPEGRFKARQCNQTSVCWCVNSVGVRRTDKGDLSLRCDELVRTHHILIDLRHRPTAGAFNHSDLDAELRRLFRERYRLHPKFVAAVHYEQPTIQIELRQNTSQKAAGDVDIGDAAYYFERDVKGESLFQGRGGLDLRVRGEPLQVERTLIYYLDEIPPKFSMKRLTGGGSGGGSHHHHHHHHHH
experiment.summary: ELISA, plate-coated macaque Trop-2-His
pEC50: −log10 of the molar value.
attribute.measured: pEC50

>  <binder>
hz-Ab2-2.1 (antibody, human IgG1, kappa, V domains shown, Humanized antibody) VH: EVQLVESGGGLIQPGGSLRLSCAVSGFSLTYYGIDWVRQPPGKGLEWVSVIWGSGNTKYNSALKSRLTISRDNSKSTLYLQMNSLRAEDTAVYYCARFYEGFAYWGQGTLVTVSS VL: DIQMTQSPSSLSASVGDRVTITCRASQDINSYLSWFQQKPGKAPKTLIYRANRLVEGVPSRFSGSGSGQDFTLTISSLQPEDFATYYCLQYDEYPLTFGQGTKVEIKR

>  <recorded.number>
8.93

$$$$
>  <binder>
hz-Ab21-2.1 (antibody, human IgG1, kappa, V domains shown, Humanized antibody) VH: EVQLVESGGGLVKPGGSLRLSCAASGFTLRNYGVHWVRQAPGKGLEWVGVIWSSGTTDYAAPVKGRFTISKDNSKNTLYLQMNSLKTEDTAVYYCTRDGDYDYYTMDYWGQGTLVTVSS VL: EIVLTQSPATLSLSPGERATLSCRASKSVSTSAYSYIHWYQQKPGQPPRLLIYLTSNLESGIPARFSGSGSGTDFTLTISSLEPEDFAVYYCQHSRELPYTFGQGTKVEIKR

>  <recorded.number>
10.19

$$$$
>  <binder>
ch-Ab35 (antibody, human IgG1, kappa, V domains shown, Mouse VH/VL on human IgG1 and human kappa constant regions; also called chimeric antibody of Ab35) VH: EVQLQQSGPDLVRPGASVKLSCKASGYTFTSSDINWVKQRPGQGLEWIGWIYPRDGSKKYNEKFKGKATLTVDTSSSTAYMEVHSLTSEDSAVYFCATRFATVVSNYGLDPWGQGTSVTVSS VL: AIVLTQSPAIMSASPGEKVTMTCSASSSVNYIYWYQRKPGSSPRLLIYDTSNLASGVPVRFSGSGSGTSYSLTISRMEAEDAATYYCQQWNSYPLTFGAGTKLELKR

>  <recorded.number>
10.32

$$$$
>  <binder>
hz-Ab2-2.4 (antibody, human IgG1, kappa, V domains shown, Humanized antibody) VH: QVQLQESGPGLVKPSETLSLTCTVSGFSLTYYGIDWIRQPPGKGLEWIGVIWGSGNTKYNSALKSRVTISKDNSKSQVYLKLSSVTAADTAVYYCARFYEGFAYWGQGTLVTVSS VL: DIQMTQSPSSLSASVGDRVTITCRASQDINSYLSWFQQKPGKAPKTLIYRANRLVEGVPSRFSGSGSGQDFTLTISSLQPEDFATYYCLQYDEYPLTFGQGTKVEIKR

>  <recorded.number>
10.15

$$$$
>  <binder>
ch-Ab2 (antibody, human IgG1, kappa, V domains shown, also called chimeric antibody of Ab2) VH: EVQLVESGPGLVAPSQSLSITCTVSGFSLTYYGIDWVRQPPGKGLEWLGVIWGSGNTKYNSALMSRLSISKDNSKSQVFLRMNSLQSDDTAIYYCARFYEGFAYWGQGTLVTVSA VL: AIVLTQSPSSMYASLGERVTITCKASQDINSYLSWFQQKPGKSPKTLIYRANRLVDGVPSRFSGSGSGQDYSLTISSLEYEDMGIYYCLQYDEFPLTFGVGTKLELKR

>  <recorded.number>
10.32

$$$$
>  <binder>
hz-Ab21-1.2 (antibody, human IgG1, kappa, V domains shown, Humanized antibody) VH: EVQLVESGGGLVKPGGSLRLSCAASGFTLRNYGVHWVRQAPGKGLEWVGVIWSSGTTDYNAAFISRFTISKDNSKNTLYLQMNSLKTEDTAVYYCTRDGDYDYYTMDYWGQGTLVTVSS VL: EIVLTQSPATLSLSPGERATLSCRASKSVSTSAYSYIHWYQQKPGQAPRLLIYLTSNLESGIPARFSGSGSGTDFTLTISSLEPEDFAVYYCQHSRELPYTFGQGTKVEIKR

>  <recorded.number>
10.07

$$$$
>  <binder>
hz-Ab2-2.3 (antibody, human IgG1, kappa, V domains shown, Humanized antibody) VH: QVQLQESGPGLVKPSETLSLTCTVSGFSLTYYGIDWIRQPPGKGLEWIGVIWGSGNTKYNSALKSRVTISKDNSKSQFSLKLSSVTAADTAVYYCARFYEGFAYWGQGTLVTVSS VL: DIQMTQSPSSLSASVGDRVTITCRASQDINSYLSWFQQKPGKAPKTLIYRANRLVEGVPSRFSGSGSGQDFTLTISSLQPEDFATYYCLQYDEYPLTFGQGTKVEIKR

>  <recorded.number>
9.08

$$$$
>  <binder>
hz-Ab21-2.2 (antibody, human IgG1, kappa, V domains shown, Humanized antibody) VH: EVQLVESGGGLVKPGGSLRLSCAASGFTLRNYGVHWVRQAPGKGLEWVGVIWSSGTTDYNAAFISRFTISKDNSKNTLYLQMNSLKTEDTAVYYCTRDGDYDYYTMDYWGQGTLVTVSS VL: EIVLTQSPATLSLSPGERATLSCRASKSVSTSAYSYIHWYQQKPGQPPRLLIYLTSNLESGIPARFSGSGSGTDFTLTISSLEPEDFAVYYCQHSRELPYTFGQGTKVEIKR

>  <recorded.number>
10.09

$$$$
>  <binder>
hz-Ab2-1.1 (antibody, human IgG1, kappa, V domains shown, Humanized antibody) VH: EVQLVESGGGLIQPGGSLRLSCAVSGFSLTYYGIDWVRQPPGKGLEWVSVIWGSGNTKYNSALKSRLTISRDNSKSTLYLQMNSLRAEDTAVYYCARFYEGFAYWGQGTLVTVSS VL: DIQMTQSPSSLSASVGDRVTITCKASQDINSYLSWFQQKPGKAPKTLIYRANRLVEGVPSRFSGSGSGQDYTLTISSLQPEDFATYYCLQYDEFPLTFGQGTKVEIKR

>  <recorded.number>
9.88

$$$$
>  <binder>
hz-Ab2-1.3 (antibody, human IgG1, kappa, V domains shown, Humanized antibody) VH: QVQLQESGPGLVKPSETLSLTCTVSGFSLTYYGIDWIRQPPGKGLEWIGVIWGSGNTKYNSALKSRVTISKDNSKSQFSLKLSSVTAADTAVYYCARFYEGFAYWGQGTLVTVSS VL: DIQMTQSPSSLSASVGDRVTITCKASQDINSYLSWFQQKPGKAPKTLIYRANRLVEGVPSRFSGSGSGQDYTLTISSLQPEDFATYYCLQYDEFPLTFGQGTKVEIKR

>  <recorded.number>
10.17

$$$$
